ASSAY_OVERVIEW: basal CRE-LacZ reporter activity in PC12 – cell-based, unstimulated, primary screen (AID 1145)
TEST_SETTINGS: no forskolin, luminescence, 4.5 h, higher = more signal, called active from +8 up or from −8 down
Threshold check on z-score: at or above 0.007 gives rule met, strictly below gives rule not met.

COMPOUND	LABEL_CLASS
CC(=O)OCC1C2CC[C@H]3C(OCc4ccc(F)cc4C(F)(F)F)OC[C@]4(C)[C@H]3C2=C(CN4C(=O)OC(C)(C)C)[C@H](C)C1COC(C)=O (stereo partly specified)	rule met

// inclusive: z-score at least 0.007? input: C=CCC(OC(C)=O)[C@@H]1[C@@H](N(Cc2ccc(-c3cccc(C(F)(F)F)c3)o2)C(=O)Cc2ccc(F)cc2)c2cc(OCCCO)ccc2N1C(=O)Cc1ccc2ccccc2c1 (stereo partly specified)
rule not met

// inclusive: z-score at least 0.007? input: COCCOC(=O)N1C(=O)[C@@]2(c3cc(C#CCC(C(=O)OC)C(=O)OC)ccc31)[C@H](C(=O)Nc1nc3ccccc3s1)[C@H]1C(=O)O[C@H](c3ccccc3)[C@H](c3ccccc3)N1[C@@H]2c1ccc(OCCO)cc1
rule met

// inclusive: z-score at least 0.007? input: COC(=O)C(CC#Cc1ccc2c(c1)[C@]1(C(=O)N2)[C@H](C(=O)NC[C@H](O)c2ccccc2)[C@H]2C(=O)O[C@H](c3ccccc3)[C@H](c3ccccc3)N2[C@@H]1c1ccccc1OCCO)C(=O)OC
rule not met

// inclusive: z-score at least 0.007? input: COC(=O)[C@H](Cc1ccc(O)cc1)N[C@@H](/C=C/C1CC1)[C@H](O)Cc1ccccc1
rule met

// inclusive: z-score at least 0.007? input: CCOC(=O)C1=CCC(c2cc3ccccc3[nH]2)N(CCN2CC(C(=O)OCC)=CCC2c2cc3ccccc3[nH]2)C1 (stereo unspecified)
rule not met

====

ASSAY_OVERVIEW: calcein-AM signal in unstimulated myeloma cells – cell-based, calcein-AM fluorescence, 48 h, PK04 Diversity Set, profiling panel (AID 1166);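 note: cells grown under basal conditions without added stimulus; test concentration not given here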
TEST_SETTINGS: RPMI8226 myeloma viability, higher = more signal
VALUE_KIND: z-score
Lab note: record the figure alone, no unit after it.

COMPOUND	VALUE_KIND	MEASURED_RESULT
CCCC[C@H]1OB(O)C[C@H]2C1=C(COc1ccccc1)C[C@H]1C(=O)C=CC(=O)[C@H]12	z-score	-3.25
O=C(NCc1ccccc1)[C@@H]1c2ccccc2C(=O)N(Cc2ccc(OC(F)(F)F)cc2)[C@H]1c1ccc(CO)cc1	z-score	0.473
C=CCOC(=O)[C@@H]1[C@H]2C(=O)O[C@H](c3ccccc3)[C@H](c3ccccc3)N2[C@H](c2ccc(OCCOC(=O)[C@H]3C[C@H]4C(=O)NCC(=O)N4[C@H]3c3cccc(OCCO)c3)cc2)[C@@]12C(=O)Nc1ccc(I)cc12	z-score	-0.785
CN1C(=O)C2C(C3CC3)C=C3CN(Cc4cccc(Cl)c4)[C@@H]([C@@H](O)Cc4ccccc4)C3C2C1=O (some centres undefined)	z-score	-2.67
COC(=O)C(CC#Cc1ccc2c(c1)[C@]1(C(=O)N2)[C@H](C(=O)NC[C@H](O)c2ccccc2)[C@H]2C(=O)O[C@H](c3ccccc3)[C@H](c3ccccc3)N2[C@@H]1c1ccccc1OCCO)C(=O)OC	z-score	-4.57
CCOC(=O)C1=C[C@@H](C(C)(C)C)N(S(=O)(=O)c2ccc(C)cc2)[C@H]1c1ccc(C#N)cc1	z-score	-2.17

Lab note: Cc1ccc(F)cc1S(=O)(=O)N[C@H]1CCN(Cc2ccc(OC(C)C)cc2)C1 gave z-score of -1.93

Lab note: O=C1C[C@@](C(=O)O)(c2ccc([N+](=O)[O-])cc2)[C@@H](c2ccc(CO)cc2)N1C1CCCCC1 gave z-score of -2.67

Lab note: COc1ccc([Si](C)(C)[C@H]2[C@H](CCO)O[C@@]3(C(=O)N(Cc4ccc(NC(=O)[C@H](C)O)cc4)c4ccccc43)[C@@H]2C)cc1 gave z-score of -4.47
